# assay-summary: Chemical stability (degradation kinetics) in aqueous solution by HPLC
# Type: physicochemical
# condition-description: pH 4, aqueous solution, 25.0 ± 0.1 °C, read-out: t50, half-life (converted)
Where a name gives a salt, the structure may show the parent alone.
measurement-name: half-life at 30 µg/mL (h)
Numeric only. Scale: h

Would you kindly share the measured half-life at 30 µg/mL for CN(C)[C@@H]1C(O)=C(C(N)=O)C(=O)[C@@]2(O)C(O)=C3C(=O)c4c(O)cccc4[C@@](C)(O)[C@H]3[C@H](O)[C@@H]12 [OxyCl-III, Oxytetracycline hydrochloride] ?
60

* * *

# assay-summary: Chemical stability (degradation kinetics) in PBS by HPLC
# Format: physicochemical
# condition-description: PBS, pH 7.4, PBS, 25.0 ± 0.1 °C; read-out: t50, half-life (converted)
Counter-ions that a name gives are not always drawn.
measurement-name: half-life at 30 µg/mL (h)
Numeric only. Scale: h

Would you kindly share the measured half-life at 30 µg/mL for CN(C)[C@@H]1C(O)=C(C(N)=O)C(=O)[C@@]2(O)C(O)=C3C(=O)c4c(O)cccc4[C@@](C)(O)[C@H]3[C@H](O)[C@@H]12 [OxyCl-I, Oxytetracycline hydrochloride] ?
81
